# Tested on: paw edema
# Assay summary: adjuvant-edema test (oral, Mycobacterium butyricum paw edema)
# Format: in vivo, SPF rats
# Condition description: Rattus norvegicus; oral; 50% reduction of paw edema; systemic activity; read-out: Adjuvant Edema Test ED50
Each item that follows carries a reported ED50.
// return the numeric value with its unit appended

// known answers, use as guide
- Mol smiles: "CC(=O)O[C@]1(C(=O)CCl)CC[C@H]2C3=C([C@@H](O)C[C@@]21C)[C@@]1(C)C=CC(=O)C=C1CC3"
  System: "paw edema"
  ED50: "3.6 mg/kg"
- Mol smiles: "C[C@]12C=CC(=O)C=C1CCC1=C2[C@@H](O)C[C@@]2(C)[C@H]1CC[C@]2(OC(=O)c1ccccc1)C(=O)CCl"
  System: "paw edema"
  ED50: "1 mg/kg"
- Mol smiles: "CCC(=O)O[C@]1(C(=O)CCl)CC[C@H]2C3=C([C@@H](O)C[C@@]21C)[C@@]1(C)C=CC(=O)C=C1CC3"
  System: "paw edema"
  ED50: "2 mg/kg"

Provide the reported ED50 (system: paw edema) for CC(C)(C)C(=O)OCC(=O)[C@@]1(OC(=O)c2ccccc2)CC[C@H]2C3=C([C@@H](O)C[C@@]21C)[C@@]1(C)C=CC(=O)C=C1CC3
10 mg/kg

Data origin, for the record: patent US4176126A
